- Test system: Rattus norvegicus
- procedure.summary: In vivo percent inhibition of angiotensin I pressor response 15 min after 1 mg/kg, iv administration in spontaneously hypertensive rat (SHR)
- Assay type: functional
- assay.setup: Rattus norvegicus, iv, 0.25 h
reported.endpoint: inhibition in vivo at 1 mg/kg (%)
Entry rule: numbers only, all in %.

QUERY: Need inhibition in vivo at 1 mg/kg of CC(CC(=O)O)C(=O)N1c2ccccc2C[C@H]1C(=O)O (stereo partly drawn) , thanks.
RESULT: 27

QUERY: Record request: inhibition in vivo at 1 mg/kg value, item COc1ccc2c(c1)CC(C(=O)O)N2C(=O)[C@H](C)C[C@@H](C)C(=O)O (stereo partly drawn)
RESULT: 56

QUERY: # lookup: inhibition in vivo at 1 mg/kg of CC(CCC(=O)O)C(=O)N1c2ccccc2CC1C(=O)O (stereo not drawn)
RESULT: 84
